Assay: chemical genetic growth profiling, strain panel (AID 1159580);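 further: tested at 20 µM; growth read once vehicle control cultures reached saturation at 30 °C; lower values mean less growth of the strain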
Conditions: S. cerevisiae deletion strains, growth OD, locus YDR101C, strain arx1
The whole screen tested about 5,500 compounds, of which about 2,000 (36%) were called active. About 18% were inconclusive and are not listed. No stated cut-off is given here; in the data, active means normalized growth mostly below about 0.91 (no sharp cut-off); inconclusive means no clear call, values can overlap the other calls; inactive means mostly above about 0.92. Some of the results follow.
Allowed answers: active, inactive

Worked set:
Request: Hi, do you know how N[C@@H](C(=O)N[C@@H]1C(=O)N2C(C(=O)O)=C(Cl)CS[C@H]12)c1ccccc1 came out in this test?
Response: inactive

Request: One more compound: COc1cc2cccc(OC)c(=O)c2c(OC)c1OC
Response: inactive

Request: Consider next the compound O=C(O)CCC(=O)OC[C@@H](NC(=O)C(Cl)Cl)[C@H](O)c1ccc([N+](=O)[O-])cc1 in the same way.
Response: inactive

Request: And what about the compound O=C(/C=C/c1ccccc1)c1ccc(O[C@@H]2O[C@H](CO)[C@@H](O)[C@H](O)[C@H]2O)cc1O ?
Response: active

Request: And CC(C)=CCC/C(C)=C/CO ?
Response: inactive

Next:
Request: Assay outcome for CNC(=O)Oc1cccc2c1OC(C)(C)C2 : what was it?
Response: inactive

Request: Then what about the compound Cc1ccc(O)c(C(CCN(C(C)C)C(C)C)c2ccccc2)c1 (stereo not drawn) ?
Response: inactive

Request: Cool, now CNC(C)(C)Cc1ccccc1
Response: inactive

Request: Follow-up entry: CCCCN(CC)c1c([N+](=O)[O-])cc(C(F)(F)F)cc1[N+](=O)[O-]
Response: inactive

Request: Then CCCC(=O)Nc1ccc(OCC(O)CNC(C)C)c(C(C)=O)c1 (stereo not drawn) ?
Response: inactive

Request: Follow-up item: C/C(=C\CO)CC[C@H](C)CCC[C@H](C)CCCC(C)C
Response: active

Request: One more compound: C[C@H]1C(=O)CCC2[C@]3(C)CC[C@@]4(C)C5CC(C)(C)CC[C@]5(C)CC[C@]4(C)C3CC[C@@]21C (stereo partly drawn)
Response: inactive
